// compounds with IC50 on Plasminogen (Homo sapiens), multi-source literature

Completed entries (count: 4):
| compound | IC50 |
| --- | --- |
| CNCc1ccc(C(=O)Nc2ccc(Cl)cc2C(=O)Nc2ccc(Cl)cn2)cc1 | > 11 µM |
| NC1=NCCCCN1Cc1ccc(C(=O)Nc2ccc(Cl)cc2C(=O)Nc2ccc(Cl)cn2)cc1 | > 11 µM |
| Cc1cc(C(=O)Nc2ccc(C(=N)N(C)C)cc2F)n(-c2cc3ccccc3cc2F)n1 | > 10 µM |
| Cc1nc(N)ccc1CNC(=O)c1cnn(Cc2ccc(Cn3cccn3)cc2)c1 | > 1000 µM |

(Q) I am curious: what IC50 value has been reported for COc1ccccc1C(=O)N[C@]1(OC)C(=O)N2C(C(=O)OCc3cccc(C)c3)=C(CSc3nncn3CC(=O)O)CO[C@@H]21 ?
(A) > 10 µM

(Q) Then CCN(CC)Cc1ccc(C(=O)Nc2ccc(Cl)cc2C(=O)Nc2ccc(Cl)cn2)cc1 ?
(A) > 11 µM

(Q) Then N=C(N)NCc1ccc(C(=O)Nc2ccc(Cl)cc2C(=O)Nc2ccc(Cl)cn2)cc1 ?
(A) > 11 µM

(Q) Then CC(=N)N(C)CCN(C)Cc1ccc(C(=O)Nc2ccc(Cl)cc2C(=O)Nc2ccc(Cl)cn2)cc1 ?
(A) > 11 µM

(Q) Then COC(=O)N[C@H](CC1CCN(C(=N)N)CC1)C(=O)NCC(=O)N[C@H]1CCCN(C(=N)N)C1O (stereo not given in full) ?
(A) > 2.5 µM

(Q) Then C/N=C(/NC)N(C)Cc1ccc(C(=O)Nc2ccc(Cl)cc2C(=O)Nc2ccc(Cl)cn2)cc1 ?
(A) > 11 µM

(Q) Then CN(C)C(=O)C(C)(C)c1ccc2c(c1)nc(Cc1ccc(C(=N)N)cc1)c(=O)n2C ?
(A) > 100 µM

(Q) Then N=C(N)c1ccc(C(=O)Nc2ccccc2C(=O)Nc2ccc(Cl)cn2)cc1 ?
(A) > 10 µM

(Q) Then Cn1c(CN2C(=O)CN(c3ccc4c(c3)oc(=O)n4Cc3ccncc3)C2=O)cc2cnc(C(=O)N[C@H](C#N)CCCCN)nc21 ?
(A) > 200 µM

(Q) Then Cc1cc(C(=O)Nc2ccc(-c3ccccc3S(N)(=O)=O)cc2)n(-c2ccc3cc(O)ccc3c2)n1 ?
(A) > 11 µM

(Q) Then CN(C)NCc1ccc(C(=O)Nc2ccc(Cl)cc2C(=O)Nc2ccc(Cl)cn2)cc1 ?
(A) > 11 µM

(Q) Then NC(N)=NC(=O)c1ncc(NCC(=O)O)nc1N ?
(A) > 250 µM

(Q) Then N#C[C@H](CCCCN)NC(=O)c1ccc(OCc2ccncc2)c(NC(=O)CCc2cn(Cc3ccc(F)cc3)c3ccccc23)c1 ?
(A) 140 µM

(Q) Then CC(C)(C)OC(=O)N[C@H](Cc1ccccc1)C(=O)N1CC[C@H]1C(=O)N[C@H](C=O)CCCNC(=N)N ?
(A) 0.36 µM

(Q) Then CC[C@@H]1CC(C(=O)NCc2ccc(C(=N)N)cc2)N2C(=O)[C@](N)(Cc3ccccc3)C[C@H](OC)[C@H]12 (stereo not given in full) ?
(A) 11 µM

(Q) Then C[C@](NC(=O)C(F)(F)F)(C(=O)N1CCC[C@H]1C(=O)N[C@H](C=O)CCCN=C(N)N)c1ccccc1 ?
(A) 45 µM

###

// molecules with pIC50 on Plasminogen (Homo sapiens), multi-source literature
pIC50: −log10 of the molar value.
measured attribute: pIC50

Completed entries (count: 5):
| molecule | readout number |
| --- | --- |
| CC(C)c1cc(-c2ccc3c(c2)[C@H](N)CO3)cc(C(O)CN2CCc3cccc(C(=O)O)c32)c1 (mixture of isomers) | 5.02 |
| CC(=O)N[C@@](C)(C(=O)N1CC[C@H]1C(=O)N[C@H](C=O)CCCNC(=N)N)c1ccccc1 | 5.12 |
| C[C@@H](c1nc2ccc(C(=O)N[C@H](C#N)CCCCN)cc2n1C)N1C(=O)CN(c2ccc(F)cc2)C1=O | 4.60 |
| COC(=O)[C@@H](NC(=O)[C@@H](NC(=O)CC[C@H]1CCC[C@@H](NC(=O)[C@@H](NC(=O)[C@@H](NC(=O)OCc2ccccc2)C(=O)[C@@H](N)Cc2c[nH]c3ccccc23)C(=O)[C@@H](N)Cc2c[nH]c3ccccc23)C1=O)C(=O)[C@@H](N)Cc1c[nH]c2ccccc12)C(=O)[C@@H](N)Cc1ccc(O)cc1 | 5.57 |
| COC(=O)[C@@H](NC(=O)[C@@H](NC(=O)CC[C@H]1CCC[C@@H](NC(=O)[C@@H](NC(=O)[C@@H](NC(=O)OCc2ccccc2)C(=O)[C@@H](N)Cc2c[nH]c3ccccc23)C(=O)[C@@H](N)Cc2c[nH]c3ccccc23)C1=O)C(=O)[C@@H](N)Cc1c[nH]c2ccccc12)C(=O)[C@@H](N)Cc1ccccc1 | 5.48 |

A. COc1ccc(Oc2ccc(N3CC(=O)N(Cc4cc5cnc(C(=O)N[C@H](C#N)CCCCN)nc5n4C)C3=O)cc2)cc1
B. CC(C)CNC(=O)c1ccc(-c2ccc(-c3occc3CO)cc2C(=O)Nc2ccc(C(=N)N)cc2)c(C(=O)O)c1
C. CO[C@H](C(=O)N1CCC[C@H]1C(=O)NC(C=O)CCCN=C(N)N)c1ccccc1 (stereo partly specified)
D. CC[C@@H](Oc1nc(Oc2cccc(-c3cccc(CN)c3)c2)c(F)cc1F)C(=O)O
(Q) Please put the entries in order of rising pIC50. Quick reminder: the answer is the labels in the order asked.
(A) A, C, D, B
(A: 4.19, C: 4.82, D: 5.73, B: 5.97)

###

pIC50: −log10 of the molar value.
// molecules with pIC50 on Plasminogen (Homo sapiens, UniProt P00747), multi-source literature

| molecule | result |
| --- | --- |
| N=C(NO)c1nc(Cl)c(NCC(=O)OCc2ccccc2)nc1N | < 3.60 |
| CCOC(=O)C1CCN(Cc2ccc(C(=O)Nc3ccc(Cl)cc3C(=O)Nc3ccc(Cl)cn3)cc2)CC1 | < 4.96 |
| Cc1cc(C(=O)Nc2ccc(-c3ccccc3S(N)(=O)=O)cc2)n(-c2cc3ccccc3cc2O)n1 | < 4.96 |
| N=C(N)N1CCC[C@H](NC(=O)Cn2cccc(NS(=O)(=O)Cc3ccccc3)c2=O)C1O (stereo not given in full) | < 5.60 |
| CC(=N)NCc1ccc(C(=O)Nc2ccc(Cl)cc2C(=O)Nc2ccc(Cl)cn2)cc1 | < 4.96 |
| CC[C@H](Oc1nc(Oc2cccc(-c3cccc(CN)c3)c2)c(F)cc1F)C(=O)O | < 4.52 |
| CC#Cc1ccc(-c2ccc(C(=O)NCC(C)C)cc2C(=O)O)c(C(=O)Nc2ccc(C(=N)N)cc2)c1 | 6.90 |
| C[N+](C)(C)Cc1ccc(C(=O)Nc2ccc(Cl)cc2C(=O)Nc2ccc(Cl)cn2)cc1 | < 4.96 |

Now turn to the next molecule.
(Q) Please state recorded pIC50 (tested on Plasminogen (Homo sapiens, UniProt P00747)) of CN1CC(=O)N(Cc2cc3cnc(C(=O)N[C@H](C#N)CCCCN)nc3n2C)C1=O
(A) < 3.00

###

// compounds with IC50 on Plasminogen (Homo sapiens, UniProt P00747), multi-source literature

| compound | result |
| --- | --- |
| COc1ccc(NC(=O)c2ccc(C(=N)N(C)C)cc2)c(C(=O)Nc2ccc(Cl)cn2)c1 | > 10 µM |

(Q) I am curious: what IC50 value has been reported for O=C(Nc1ccc(Cl)cc1C(=O)Nc1ccc(Cl)cn1)c1ccc(CN2CCCC2)cc1 ?
(A) > 11 µM

(Q) Then Cc1nc(N)cc2c1CNC(=O)c1cnn(c1)Cc1ccc(Cn3cccn3)cc1OCCC/C=C/CCO2 ?
(A) > 200 µM

(Q) Then N=C(N)NCCC[C@@H](NC(=O)OCc1ccccc1)C(=O)NCC(=O)N[C@H]1CCCN(C(=N)N)C1O (stereo in doubt; 1) ?
(A) > 2.5 µM

(Q) Then N=C(N)c1nc(Cl)c(NCC(=O)OCc2ccccc2)nc1N ?
(A) > 250 µM

(Q) Then CC(=N)N(C)Cc1ccc(C(=O)Nc2ccc(Cl)cc2C(=O)Nc2ccc(Cl)cn2)cc1 ?
(A) > 11 µM

(Q) Then Cc1cc(C(=O)Nc2ccc(C(=N)N(C)C)cc2F)n(-c2ccc3cc(Cl)ccc3c2)n1 ?
(A) > 10 µM

###

pIC50: −log10 of the molar value.
// compounds with pIC50 on Plasminogen (Homo sapiens, UniProt P00747), multi-source literature

| compound | measured target | pIC50 |
| --- | --- | --- |
| Nc1nc(-c2ccccn2)nn1C(=O)c1cccc2ccccc12 | Plasminogen (Homo sapiens, UniProt P00747) | < 5.30 |
| CN(C)C(=N)c1ccc(NC(=O)c2cc(C(F)(F)F)nn2-c2cc3ccccc3cc2F)c(F)c1 | Plasminogen (Homo sapiens, UniProt P00747) | < 5.00 |
| CC(=N)N1CCN(Cc2ccc(C(=O)Nc3ccc(Cl)cc3C(=O)Nc3ccc(Cl)cn3)cc2)CC1 | Plasminogen (Homo sapiens, UniProt P00747) | < 4.96 |
| COC(=O)c1cc2ccccc2cc1-n1nc(C)cc1C(=O)Nc1ccc(-c2ccccc2S(N)(=O)=O)cc1 | Plasminogen (Homo sapiens, UniProt P00747) | < 4.96 |
| Cn1cc(NS(=O)(=O)Cc2ccccc2)c(=O)n(CC(=O)N[C@H]2CCCN(C(=N)N)C2O)c1=O (some centres not stated) | Plasminogen (Homo sapiens, UniProt P00747) | < 5.60 |

(Q) I am curious: what pIC50 value has been reported for O=C(Nc1ccc(Cl)cc1C(=O)Nc1ccc(Cl)cn1)c1ccc(CN2CCCCC2)cc1 ?
(A) < 4.96

(Q) Then Cc1cc(C(=O)Nc2ccc(-c3ccccc3S(N)(=O)=O)cc2)n(-c2cc3ccccc3cc2CO)n1 ?
(A) < 4.96

(Q) Then Cc1cc(CNC(=O)[C@@H]2C=CCN2C(=O)[C@@H](CC2CCCCC2)NCC(=O)O)sc1C(=N)N ?
(A) < 4.70

(Q) Then COc1ccc2c(c1)CC[C@H](NS(=O)(=O)CC1CCCCC1)C(=O)N2CC(=O)N[C@H]1CCCN(C(=N)N)C1O (some centres not stated) ?
(A) < 5.60

(Q) Then Cc1cc(C(=O)Nc2ccc(-c3ccccc3S(N)(=O)=O)cc2)n(-c2ccc3cc(Br)ccc3c2)n1 ?
(A) < 4.96

(Q) Then NC(=O)C1CCN(Cc2ccc(C(=O)Nc3ccc(Cl)cc3C(=O)Nc3ccc(Cl)cn3)cc2)CC1 ?
(A) < 4.96

(Q) Then CCN(C)Cc1ccc(C(=O)Nc2ccc(Cl)cc2C(=O)Nc2ccc(Cl)cn2)cc1 ?
(A) < 4.96
